Test system: NCI/ADR-RES ovarian
Test: NCI-60 one-dose screen, 48 h (100 = growth as untreated, 0 = no growth, -100 = all killed)
Conditions: 10 µM unless noted
The panel holds about 83,000 compounds, 20% with a hit somewhere; the sample as a whole holds those more often.
parameter: growth (%)
The response must be a number in % with no trailing unit.

Examples with their reported growth follow.
INSERT INTO assay_data (compound, system_under_test, quantitative_readout) VALUES
  ('COC[CH2][Hg][C]#[C][Hg][CH2]COC', 'NCI/ADR-RES ovarian', 102),
  ('O=C(c1cccs1)C1NO[N+]([O-])=C1c1cccs1 (stereo not drawn)', 'NCI/ADR-RES ovarian', 47.5);

Now consider the entry below.
QUERY: Fetch value of growth on NCI/ADR-RES ovarian for O=C(O)CNC(=O)c1ccccc1 .
RESULT: 101

###

Tested on: HL-60(TB) leukemia
Assay: NCI-60 one-dose screen, 48 h (100 = growth as untreated, 0 = no growth, -100 = all killed)
Conditions: 10 µM unless noted
The panel holds about 83,000 compounds, 20% with a hit somewhere; the sample as a whole holds those more often.
Listed compounds paired with reported growth
The response must be a number in % with no trailing unit.

Examples with their reported growth follow.
INSERT INTO measurements (compound, quantitative_readout) VALUES
  ('COc1ccc(/C=C/C(=O)/C=C(/C=C/c2ccc(OC)c(OC)c2OC)OB(F)F)c(OC)c1OC', 8.53),
  ('O=c1c2cc(F)cc(Cl)c2sc2c(Cl)nc3ccccc3c12', 115),
  ('Nc1ccc(-c2ccc(N)c(Br)c2)cc1Br', 7.99),
  ('COc1ccc(Cc2cnc(NC(=O)c3cc(C)oc3C)s2)cc1', -9.34);

QUERY: Please report growth for the following compound: CC(C)Cn1cnc2c(=O)[nH]c(N)nc21
RESULT: 63.8

QUERY: Please report growth for the following compound: C[C@@H]1C(=O)N(C[C@H](Cc2ccccc2)NC(=O)OCc2ccccc2)[C@]1(Cc1ccccc1)C(=O)OC(C)(C)C
RESULT: 81.5

###

Test system: RXF 393 renal
Test: NCI-60 one-dose screen, 48 h
Conditions: 10 µM unless noted
Compounds without any hit were thinned out: in the full panel of roughly 83,000, 20% have a hit. Active and inactive are the calls of the source. The calls were made as follows: active = growth percent below 10; inactive = the rest.
Allowed answers: True for active, False for inactive

INSERT INTO measurements (molecule, label_value) VALUES
  ('COc1ccc(-c2ccc(OC)c(OC)c2OC)cc1', 'False'),
  ('[Br][Pb]([c]1ccccc1)([c]1ccccc1)[c]1ccccc1', 'True'),
  ('C/C1=C/C(=O)O[C@@H]2C[C@@H](CC[C@H](C)/C=C\C=C\CC1)O[C@@](OCCc1ccccc1)([C@@H]1CSC(=O)N1)C2', 'True'),
  ('CC1(C)N=C(N)N=C(N)N1c1ccc(CNC(=O)Nc2ccc(S(=O)(=O)F)c(Cl)c2)c(Cl)c1', 'False'),
  ('Nc1ccc([N+](=O)[O-])c2c1Oc1ccccc1O2', 'False');

QUERY: Can you look up the reported call for O=C1NC(=S)NC(=O)C1=Cc1ccccc1 for me?
RESULT: False

QUERY: Can you look up the reported call for O1[As]2O[As]3O[As]1O[As](O2)O3 for me?
RESULT: True

QUERY: Can you look up the reported call for CCOP(=O)(OCC)Oc1ccc(Sc2ccc(OP(=O)(OCC)OCC)cc2)cc1 for me?
RESULT: False

QUERY: Can you look up the reported call for C=C=[CH][Sn]([c]1ccccc1)([c]1ccccc1)[c]1ccccc1 for me?
RESULT: True

QUERY: Can you look up the reported call for CC[C@@H](C)/C=C(C)/C=C/C(=O)c1c(O)c(-c2ccc(O)cc2)cn(O)c1=O for me?
RESULT: False

Just for reference, PubChem BioAssay (NCI) is where these values come from.
